Biological target: Recombinant human GST A1-1 (Homo sapiens)
Sequence (P08263 whole entry): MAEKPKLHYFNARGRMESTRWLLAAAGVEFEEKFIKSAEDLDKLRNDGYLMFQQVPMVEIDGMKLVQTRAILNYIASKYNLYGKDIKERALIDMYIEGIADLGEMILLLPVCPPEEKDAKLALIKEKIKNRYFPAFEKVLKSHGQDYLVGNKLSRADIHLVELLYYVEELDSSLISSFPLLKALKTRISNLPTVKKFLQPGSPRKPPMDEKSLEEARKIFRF
Test: Inhibition of glutathione S-transferase isoenzyme GST A1-1 (CDNB/GSH, absorbance at 340 nm)
Details: diacids (row number n = compound nA), pH 6.5, 2% DMSO
Metric: IC50 (µM)

Molecule | Numeric value
N[C@@H](CCC(=O)N[C@@H](CS(=O)(=O)Cc1ccc([N+](=O)[O-])o1)C(=O)N[C@@H](C(=O)O)c1ccccc1)C(=O)O [Compound 14A] | 52

---

Molecular target: Recombinant human GST P1-1 (Homo sapiens, UniProt P09211)
Sequence (P09211 2-210 limits assumed): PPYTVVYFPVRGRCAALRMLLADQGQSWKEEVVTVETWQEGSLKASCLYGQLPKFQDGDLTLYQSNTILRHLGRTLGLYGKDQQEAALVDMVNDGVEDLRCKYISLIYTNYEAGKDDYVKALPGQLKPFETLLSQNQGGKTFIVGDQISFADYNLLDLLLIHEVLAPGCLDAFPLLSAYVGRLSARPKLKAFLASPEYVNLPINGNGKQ
Test: Inhibition of glutathione S-transferase isoenzyme GST P1-1 (CDNB/GSH, absorbance at 340 nm)
Settings: diacids (row number n = compound nA), pH 6.5, 2% DMSO

Compound | Assay target | Value units | IC50
N[C@@H](CCC(=O)N[C@@H](CS(=O)(=O)Cc1ccc([N+](=O)[O-])o1)C(=O)N[C@@H](C(=O)O)c1ccccc1)C(=O)O [Compound 14A] | Recombinant human GST P1-1 (Homo sapiens, UniProt P09211) | µM | 3.2

---

Target: Recombinant human GST M1-1 (Homo sapiens)
Sequence (P09488 2-218 limits assumed): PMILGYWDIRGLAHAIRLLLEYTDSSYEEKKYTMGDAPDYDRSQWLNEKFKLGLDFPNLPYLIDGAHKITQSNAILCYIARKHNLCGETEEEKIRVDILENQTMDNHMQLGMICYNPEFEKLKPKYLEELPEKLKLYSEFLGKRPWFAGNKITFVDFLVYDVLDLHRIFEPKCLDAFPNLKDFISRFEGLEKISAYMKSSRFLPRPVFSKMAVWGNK
Assay: Inhibition of glutathione S-transferase isoenzyme GST M1-1 (CDNB/GSH, absorbance at 340 nm)
Settings: diacids (row number n = compound nA), pH 6.5, 2% DMSO
pIC50: −log10 of the molar value.

Molecule | pIC50
N[C@@H](CCC(=O)N[C@@H](CS(=O)(=O)Cc1ccc([N+](=O)[O-])o1)C(=O)N[C@@H](C(=O)O)c1ccccc1)C(=O)O [Compound 14A] | 4.00
